Hello, the source for this data is patent US20250027068, in case you need it.

- Measured on: pooled human IgG
Endpoint: Enzyme Activity Endpoint Assay: Fab′2 (ng/µL)
All answers are understood in ng/µL, so give the number only.

Protein: PRT-7 (protein) MANQEIRYSEETPYHVTSVWTKGVTPPANFTQGEDVFHAPYVANQGWYDITKTFNGKDDLLCGAATAGNMLHWWFDQNKDQIERYLKKHPEKQKINFNGEQMFDVKEAIDTKDSQTDSKLFEYFKEKAFPYLSTKHLGVFPDHVIDMFINGYRLSLTNHGPTPVKEGSKDPRGGIFDAVFTRGDQSKLLTSRHDFKEKNLKEISDLIKKELTEGKALGLSHTYANVRINHVINLWGADFDSNGNLKAIYVTDSDSNASIGMKKYFVGVNSAGKVAISAKEIKEDNIGAQVLGLFTLSTGQDIWEQTN
Test value: 50

Now, please, on to the next protein.
What value of Enzyme Activity Endpoint Assay: Fab′2 has been reported for the following protein? PRT-6 (protein) MANQEIRYSEVTPYHVTSVWTKGVTPPANFTQGEDVFHAPYVANQGWYDITKTFNGKDDLLCGAATAGNMLHWWFDQNKEQIERYLKEHPEKQKINFNGEQMFDVKEAIDTKNSQLDSKLFEYFKEKAFPYLSTKHLGVFPDHVIDMFINGYRLSLTNHGPTPVKEGSKDPRGGIFDAVFTRGDQSKLLTSRHDFKEKNLKEISDLIKKELTEGKALGLSHTYANVRINHVINLWGADFDSNGNLKAIYVTDSDSNASIGMKKYFVGVNSAGKVAISAKEIEGDNIGAQVLGLFTLSTGQDIWNQTN
49
